# Test system: pigweed
# assay.text: Test A postemergence
# Type: in vivo, Amaranthus retroflexus
# stated.conditions: postemergence, 125 g ai/ha, about 10 days, visual rating on 0 to 100 scale (0 no effect, 100 complete control)
Decision: Pigweed plant response rating beneath 80 gives condition met; Pigweed plant response rating meeting or exceeding 80 gives condition not met.

[[record]]
compound_structure_string = "CCc1cc(C(=O)NOC(C)(C)CC)nn1Cc1cccc(OC(F)(F)F)c1"
discrete_label = "condition met"

[[record]]
compound_structure_string = "CCc1cc(C(=O)NCC(F)(F)F)nn1Cc1ccnc(OCC(F)(F)F)c1"
discrete_label = "condition not met"

[[record]]
compound_structure_string = "CCc1cc(C(=O)NCC(F)(F)F)nn1Cc1ccnc(C(F)(F)F)c1"
discrete_label = "condition not met"

[[record]]
compound_structure_string = "CCc1cc(C(=O)NOC)nn1Cc1ccnc(C(F)(F)F)c1"
discrete_label = "condition met"


----------
Known Plant response rating (scale of 0 to 100), Oilseed Rape of a selection of molecules
# Test system: oilseed rape
# assay.text: Test C preemergence
# Format: in vivo, Brassica napus
# stated.conditions: Preemergence, 250 g ai/ha
readout.name: Plant response rating (scale of 0 to 100), Oilseed Rape

[[record]]
molecule = "CCONC(=O)c1cc(CC)n(Cc2cc(C(F)(F)F)no2)n1 [Compound 125]"
recorded_number = 95

[[record]]
molecule = "CCc1cc(C(=O)NC2CC2)nn1Cc1ccnc(OC(F)F)c1 [Compound 98]"
recorded_number = 100

[[record]]
molecule = "CCCc1cc(C(=O)NCC)nn1Cc1cc(C(F)(F)F)nn1C [Compound 129]"
recorded_number = 100

[[record]]
molecule = "CCNC(=O)c1cc(CC)n(Cc2ccnc(OC(F)F)c2)n1 [Compound 130]"
recorded_number = 100

[[record]]
molecule = "CCCc1cc(C(=O)NCC)nn1Cc1ccnc(C(F)(F)F)c1 [Compound 95]"
recorded_number = 100


----------
Known Plant response rating, Barnyardgrass of a selection of molecules
# System: barnyardgrass
# assay.text: Test C postemergence
# Type: in vivo, Echinochloa crus-galli
# stated.conditions: postemergence, 250 g ai/ha; scale 0 to 100 (0 no effect, 100 complete control)
readout.name: Plant response rating, Barnyardgrass

[[record]]
compound_structure_string = "CCCNC(=O)c1cc(CCC)n(Cc2cc(C(F)(F)F)nn2C)n1"
readout_name = "Plant response rating, Barnyardgrass"
recorded_number = 35

[[record]]
compound_structure_string = "CCCc1cc(C(=O)NOCC)nn1Cc1ccnc(C(F)(F)F)c1"
readout_name = "Plant response rating, Barnyardgrass"
recorded_number = 20

[[record]]
compound_structure_string = "CCCc1cc(C(=O)NCC)nn1Cc1ccnc(C(F)(F)F)c1"
readout_name = "Plant response rating, Barnyardgrass"
recorded_number = 30

[[record]]
compound_structure_string = "CCc1cc(C(=O)NC2CC2)nn1Cc1ccnc(OC(F)F)c1"
readout_name = "Plant response rating, Barnyardgrass"
recorded_number = 35

[[record]]
compound_structure_string = "CCOc1cc(C(=O)NC2CC2)nn1Cc1ccnc(OC(F)F)c1"
readout_name = "Plant response rating, Barnyardgrass"
recorded_number = 15

[[record]]
compound_structure_string = "CCc1cc(C(=O)NCC(F)(F)F)nn1Cc1cc(OC(F)F)nn1C"
readout_name = "Plant response rating, Barnyardgrass"
recorded_number = 5


----------
# System: pigweed
# assay.text: Test A postemergence
# Assay type: in vivo, Amaranthus retroflexus
# stated.conditions: Postemergence, 500 g ai/ha; 0 to 100 scale (0 no effect, 100 complete control)
Known Pigweed plant response rating of a selection of compounds
readout.name: Pigweed plant response rating

[[record]]
compound_structure_string = "CCCc1cc(C(=O)NCC(F)(F)F)nn1Cc1cc(C(F)(F)F)nn1C"
result = 100

[[record]]
compound_structure_string = "CCc1cc(C(=O)NN(C)C)nn1Cc1ccnc(C(F)(F)F)c1"
result = 90

[[record]]
compound_structure_string = "CCOc1cc(C(=O)NC2CC2)nn1Cc1ccnc(C(F)(F)F)c1"
result = 100

[[record]]
compound_structure_string = "CCNC(=O)c1cc(CCCl)n(Cc2ccnc(C(F)(F)F)c2)n1"
result = 100

[[record]]
compound_structure_string = "CCOc1cc(C(=O)NC2CC2)nn1Cc1ccnc(OC(F)F)c1"
result = 100

[[record]]
compound_structure_string = "CCc1cc(C(=O)NC2CC2)nn1Oc1cccc(C(F)(F)F)c1"
result = 90

[[record]]
compound_structure_string = "CCCCc1cc(C(=O)NCC(F)(F)F)nn1Cc1ccnc(C(F)(F)F)c1"
result = 100

[[record]]
compound_structure_string = "CCCNC(=O)c1cc(CCC)n(Cc2cc(C(F)(F)F)nn2C)n1"
result = 100

[[record]]
compound_structure_string = "O=C(NC1CC1)c1cc(Cl)n(Cc2cccc(C(F)(F)F)c2)n1"
result = 90


----------
# Tested on: pigweed
# assay.text: Test A preemergence
# Assay type: in vivo, Amaranthus retroflexus
# stated.conditions: preemergence, 125 g ai/ha, visual injury approx. 10 days after treatment
readout.name: Pigweed plant response rating (0 to 100 scale)

[[record]]
molecule = "CCc1cc(C(=O)NCC2CC2)nn1Cc1ccnc(C(F)(F)F)c1 [Compound 199]"
recorded_number = 100

[[record]]
molecule = "O=C(NC1CC1)c1cc(Cl)n(Cc2cccc(C(F)(F)F)c2)n1 [Compound 174]"
recorded_number = 20

[[record]]
molecule = "CCOc1cc(C(=O)NC(C)C)nn1Cc1ccnc(C(F)(F)F)c1 [Compound 188]"
recorded_number = 100

[[record]]
molecule = "CCNC(=O)c1cc(CC)n(Cc2ccnc(C(F)(F)F)c2)n1 [Compound 196]"
recorded_number = 100

[[record]]
molecule = "CCCNC(=O)c1cc(CC)n(Cc2cc(C(F)(F)F)nn2C(C)C)n1 [Compound 209]"
recorded_number = 0

[[record]]
molecule = "CCc1cc(C(=O)NC2CC2)nn1Oc1cccc(C(F)(F)F)c1 [Compound 215]"
recorded_number = 10

[[record]]
molecule = "O=C(NCC(F)(F)F)c1cc(I)n(Cc2cccc(C(F)(F)F)c2)n1 [Compound 181]"
recorded_number = 10

[[record]]
molecule = "CCc1cc(C(=O)NCC(F)(F)F)nn1Cc1nnc(C(F)(F)F)o1 [Compound 146]"
recorded_number = 100

[[record]]
molecule = "CCNC(=O)c1cc(CC)n(Oc2cccc(OC(F)(F)F)c2)n1 [Compound 223]"
recorded_number = 0

[[record]]
molecule = "CCCc1cc(C(=O)NOCC)nn1Cc1ccnc(C(F)(F)F)c1 [Compound 185]"
recorded_number = 0


----------
# Tested on: wheat
# assay.text: Test A preemergence
# Type: in vivo, Triticum aestivum
# stated.conditions: preemergence, 125 g ai/ha; visual injury, 0 to 100 scale, approx. 10 days
Known Wheat plant response rating of a selection of compounds
readout.name: Wheat plant response rating

[[record]]
compound_structure_string = "CCCc1cc(C(=O)NCC(F)(F)F)nn1Oc1ccnc(C(F)(F)F)c1"
tgt = "wheat"
recorded_number = 0

[[record]]
compound_structure_string = "CCc1cc(-c2ccc(C(F)(F)F)cc2)nn1Cc1nc(C(F)(F)F)nn1C"
tgt = "wheat"
recorded_number = 0

[[record]]
compound_structure_string = "CCNC(=O)c1cc(CC)n(Cc2ccnc(OC(F)F)c2)n1"
tgt = "wheat"
recorded_number = 10

[[record]]
compound_structure_string = "CCCc1cc(C(=O)NC2CC2)nn1Oc1ccnc(C(F)(F)F)c1"
tgt = "wheat"
recorded_number = 0

[[record]]
compound_structure_string = "CCNC(=O)c1cc(C)n(Cc2cccc(OC(F)(F)F)c2)n1"
tgt = "wheat"
recorded_number = 0

[[record]]
compound_structure_string = "CCCc1cc(C(=O)NCC)nn1Cc1cc(C(F)(F)F)nn1C"
tgt = "wheat"
recorded_number = 50

[[record]]
compound_structure_string = "CCc1cc(C(=O)NOC(C)(C)CC)nn1Cc1cccc(OC(F)(F)F)c1"
tgt = "wheat"
recorded_number = 0

[[record]]
compound_structure_string = "CCc1cc(C(=O)NCC(F)(F)F)nn1Cc1ccnc(OCC(F)(F)F)c1"
tgt = "wheat"
recorded_number = 10


----------
# Tested on: crabgrass, large
# assay.text: Test A preemergence
# Assay type: in vivo, Digitaria sanguinalis
# stated.conditions: Preemergence, 1000 g ai/ha; 0 to 100 scale, 0 no effect, 100 complete control
readout.name: Crabgrass, Large plant response rating

[[record]]
compound_structure_string = "CCCc1cc(C(=O)NCC)nn1Cc1cccc(C(F)(F)F)c1"
tgt = "crabgrass, large"
recorded_number = 100

[[record]]
compound_structure_string = "CSc1cc(C(=O)NC2CC2)nn1Cc1cccc(C(F)(F)F)c1"
tgt = "crabgrass, large"
recorded_number = 10

[[record]]
compound_structure_string = "C=CCNC(=O)c1cc(CC)n(Cc2cccc(C(F)(F)F)c2)n1"
tgt = "crabgrass, large"
recorded_number = 50

[[record]]
compound_structure_string = "CCc1cc(C(=O)NCCC(F)(F)F)nn1Cc1cccc(OC(F)(F)F)c1"
tgt = "crabgrass, large"
recorded_number = 100

